Data provenance is PubChem BioAssay AID2060327.

Test system: PC-3 multi-cell spheroids, viability
Assay: Anticancer human tumor PC-3 cell line growth inhibition [IpAb];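 also: spheroids exposed to compounds for 7 days before readout; 100% = DMSO vehicle control wells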
Conditions: second compound 10 µM; first compound 1 µM; hits give low values
Measured Endpoint: viability, T/C (%)

* CC1(C)CCC(CN2CCN(c3ccc(C(=O)NS(=O)(=O)c4ccc(NCC5CCOCC5)c([N+](=O)[O-])c4)c(Oc4cnc5[nH]ccc5c4)c3)CC2)=C(c2ccc(Cl)cc2)C1 + CC(C)NCC(C(=O)N1CCN(c2ncnc3c2C(C)CC3O)CC1)c1ccc(Cl)cc1 | 11.5
* C=CC(=O)N1CCN(c2nc(=O)n(-c3c(C)ccnc3C(C)C)c3nc(-c4c(O)cccc4F)c(F)cc23)C(C)C1 (configuration not stated) + CC(C)NCC(C(=O)N1CCN(c2ncnc3c2C(C)CC3O)CC1)c1ccc(Cl)cc1 | 14

###

Test system: PC-3 multi-cell spheroids, viability
Assay: Anticancer human tumor PC-3 cell line growth inhibition [IpAb]; active means viability on the fitted dose curve at most 10% of control; inactive means the rest;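 also: spheroids exposed to compounds for 7 days before readout; 100% = DMSO vehicle control wells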
Conditions: second compound 0.1 µM; first compound 3 µM
Classes used: t = active, f = inactive

• CC(C)(C)c1cnc(CSc2cnc(NC(=O)C3CCNCC3)s2)o1 + CCN1CCN(Cc2ccc(Nc3ncc(F)c(-c4cc(F)c5nc(C)n(C(C)C)c5c4)n3)nc2)CC1 = t
• CC(C)(C)c1cnc(CSc2cnc(NC(=O)C3CCNCC3)s2)o1 + CC(C)NCC(C(=O)N1CCN(c2ncnc3c2C(C)CC3O)CC1)c1ccc(Cl)cc1 = t
• Cn1cnc2c(F)c(Nc3ccc(Br)cc3Cl)c(C(=O)NOCCO)cc21 + CC(C)NCC(C(=O)N1CCN(c2ncnc3c2C(C)CC3O)CC1)c1ccc(Cl)cc1 = f
• Cn1cnc2c(F)c(Nc3ccc(Br)cc3Cl)c(C(=O)NOCCO)cc21 + CCN1CCN(Cc2ccc(Nc3ncc(F)c(-c4cc(F)c5nc(C)n(C(C)C)c5c4)n3)nc2)CC1 = f

###

System: PC-3 multi-cell spheroids, viability
Assay: Anticancer human tumor PC-3 cell line growth inhibition [IpAb];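 also: spheroids exposed to compounds for 7 days before readout; 100% = DMSO vehicle control wells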
Conditions: second compound 1 µM; first compound 3.16 µM; hits give low values
Catalogue of viability, T/C readings, one per entry.
Measured Endpoint: viability, T/C (%)

- C=CC(=O)N1CCN(c2nc(=O)n(-c3c(C)ccnc3C(C)C)c3nc(-c4c(O)cccc4F)c(F)cc23)C(C)C1 (stereo not drawn) + CC(C)NCC(C(=O)N1CCN(c2ncnc3c2C(C)CC3O)CC1)c1ccc(Cl)cc1: 26.3
- C=CCn1c(=O)c2cnc(Nc3ccc(N4CCN(C)CC4)cc3)nc2n1-c1cccc(C(C)(C)O)n1 + CC(C)NCC(C(=O)N1CCN(c2ncnc3c2C(C)CC3O)CC1)c1ccc(Cl)cc1: 9.62
- CC1(C)CCC(CN2CCN(c3ccc(C(=O)NS(=O)(=O)c4ccc(NCC5CCOCC5)c([N+](=O)[O-])c4)c(Oc4cnc5[nH]ccc5c4)c3)CC2)=C(c2ccc(Cl)cc2)C1 + CC(C)NCC(C(=O)N1CCN(c2ncnc3c2C(C)CC3O)CC1)c1ccc(Cl)cc1: 15.8

###

Test system: PC-3 multi-cell spheroids, viability
Experiment: Anticancer human tumor PC-3 cell line growth inhibition [IpAb];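 also: spheroids exposed to compounds for 7 days before readout; 100% = DMSO vehicle control wells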
Settings: second compound 0.01 µM; first compound 0.0316 µM; hits give low values
Measured Endpoint: viability, T/C

- Cn1nccc1Nc1nccc(-c2ccn(C(CO)c3ccc(Cl)c(F)c3)c(=O)c2)n1 (stereo not given) + CCN1CCN(Cc2ccc(Nc3ncc(F)c(-c4cc(F)c5nc(C)n(C(C)C)c5c4)n3)nc2)CC1: 87.1%
- COc1c(OCCCN2CCOCC2)ccc2c3n(c(=NC(=O)c4cnc(N)nc4)nc12)CCN3 + CCN1CCN(Cc2ccc(Nc3ncc(F)c(-c4cc(F)c5nc(C)n(C(C)C)c5c4)n3)nc2)CC1: 140%
- CCCS(=O)(=O)Nc1ccc(F)c(C(=O)c2c[nH]c3ncc(-c4ccc(Cl)cc4)cc23)c1F + CCN1CCN(Cc2ccc(Nc3ncc(F)c(-c4cc(F)c5nc(C)n(C(C)C)c5c4)n3)nc2)CC1: 92.5%
- Cn1ncnc1[C@H]1c2n[nH]c(=O)c3cc(F)cc(c23)N[C@@H]1c1ccc(F)cc1 + CCN1CCN(Cc2ccc(Nc3ncc(F)c(-c4cc(F)c5nc(C)n(C(C)C)c5c4)n3)nc2)CC1: 46%
- Cn1ncc(Cl)c1-c1cc(C(=O)NC(CN)Cc2cccc(F)c2)sc1Cl (stereo not given) + CCN1CCN(Cc2ccc(Nc3ncc(F)c(-c4cc(F)c5nc(C)n(C(C)C)c5c4)n3)nc2)CC1: 70.5%
